Test system: Aspergillus fumigatus
method: Antifungal activity against azole-resistant Aspergillus fumigatus V34/77-CM3278 isolate from patient with hyper-immunoglobulin E syndrome by broth microdilution susceptibility test
Assay type: functional
measured.parameter: MIC

{"columns": ["molecule", "observed"],
 "data": [
  ["C[C@@H](c1ncncc1F)[C@](O)(Cn1cncn1)c1ccc(F)cc1F", "2 µg/mL"],
  ["CC[C@@H]([C@H](C)O)n1ncn(-c2ccc(N3CCN(c4ccc(OC[C@@H]5CO[C@@](Cn6cncn6)(c6ccc(F)cc6F)C5)cc4)CC3)cc2)c1=O", "0.5 µg/mL"],
  ["CCC(C)n1ncn(-c2ccc(N3CCN(c4ccc(OCC5COC(Cn6cncn6)(c6ccc(Cl)cc6Cl)O5)cc4)CC3)cc2)c1=O (stereo not drawn)", "> 8 µg/mL"]
]}
